# experimental protocol: qHTS assay to identify small molecule that activate the aryl hydrocarbon receptor (AhR) signaling pathway - cell viability counter screen (AID 743086);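 note: HepG2 liver cells carrying the AhR DRE luciferase reporter; % is set by controls: 0 for no effect and ±100 for the full control effect; nearly all actives have a fitted effect of over 45% in size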
# reported conditions: HepG2-AhR-luc viability, CellTiter-Fluor, 24 h; series mostly up to 70.3 µM
Inconclusive results are not listed. Calls of active or inactive are those of the source. Calls come from the whole dose curve; as a rule, active = well fitted cell-killing curve with a large enough effect in the repeat runs; inconclusive = weak or mixed curves, or effect the other way; inactive = flat fitted curve, though single readings scatter.
measured parameter: outcome

Recorded outcome, per entry:
O=C(NN1CCCC1)NS(=O)(=O)c1ccc(Cl)cc1; inactive
CCCCOC(=O)/C=C\C(=O)OCCCC; inactive
NCc1ccccc1; inactive
CCN(CC)CCOC(=O)C1(c2ccccc2)CCCC1; inactive
CCCCC(CC)(CO)CO; inactive
CCCCOc1ccc(CC(=O)NO)cc1; inactive
O=C1[C@H](CC[C@H](O)c2ccc(F)cc2)[C@@H](c2ccc(O)cc2)N1c1ccc(F)cc1; inactive
Cc1cc(NC(=O)C(=O)O)cc(C)c1Oc1ccc(O)c2c1CCC2; inactive

# outcome of `CCCCCc1ccc(N)cc1` = inactive

Per the record, `O=C(c1ccc(O)cc1)c1ccc(O)cc1` has outcome of inactive

Kindly note the recorded outcome for `Cc1cc(O)ccc1N` , which is inactive

Record summary for `CN(C(=O)CCCOc1ccc2[nH]c(=O)ccc2c1)C1CCCCC1` : reported outcome = inactive

# molecule `CN(C)CC/C=C1\c2ccccc2COc2ccccc21` ; its outcome = inactive

* * *

# experimental protocol: qHTS assay to identify small molecule antagonists of the estrogen receptor alpha (ER-alpha) signaling pathway using the BG1 cell line (AID 743080);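 note: BG1 cells stimulated with 17beta-estradiol alongside compound; % is set by controls: 0 for no effect and ±100 for the full control effect; nearly all actives have a fitted effect of over 25% in size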
# reported conditions: BG1Luc4E2 ERE-luciferase antagonist mode, luminescence; series mostly up to 70.3 µM
Inconclusive results are not listed. Calls of active or inactive are those of the source. The call rests on the fitted dose curve.
measured parameter: outcome

CCCCCCCCC(CO)CCCCCC (stereo not drawn); inactive
CC(=O)CC(=O)c1ccccc1; inactive
CC[C@H](C)[C@@H](C(=O)O)n1sc2ccccc2c1=O; inactive

* * *

# target: Luciferin 4-monooxygenase (Photinus pyralis) (UniProt P08659)
# Sequence (P08659 whole entry, looked up): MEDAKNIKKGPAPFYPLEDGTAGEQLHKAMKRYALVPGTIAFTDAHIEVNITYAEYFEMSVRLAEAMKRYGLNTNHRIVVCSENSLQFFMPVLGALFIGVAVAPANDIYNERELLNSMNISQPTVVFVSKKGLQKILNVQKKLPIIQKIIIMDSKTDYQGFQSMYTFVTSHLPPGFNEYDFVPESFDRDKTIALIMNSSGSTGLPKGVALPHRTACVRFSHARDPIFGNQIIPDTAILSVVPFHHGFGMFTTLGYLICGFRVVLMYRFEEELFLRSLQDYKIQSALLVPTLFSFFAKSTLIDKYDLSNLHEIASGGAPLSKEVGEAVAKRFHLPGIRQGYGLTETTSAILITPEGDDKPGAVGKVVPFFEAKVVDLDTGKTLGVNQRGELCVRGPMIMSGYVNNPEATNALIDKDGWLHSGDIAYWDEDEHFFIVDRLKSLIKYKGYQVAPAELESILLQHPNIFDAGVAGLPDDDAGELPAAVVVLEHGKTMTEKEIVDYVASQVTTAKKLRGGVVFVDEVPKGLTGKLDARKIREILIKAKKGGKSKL
# experimental protocol: qHTS assay to identify small molecule inhibitors of firefly luciferase (AID 1224835); note: nearly all actives have a fitted effect of over 25% in size
# reported conditions: purified P. pyralis luciferase, luminescence inhibition; series mostly up to 115 µM
Inconclusive results are not listed. Calls of active or inactive are those of the source. The call rests on the fitted dose curve; in most records, active means well fitted inhibition curve with a large enough effect in the repeat runs; inconclusive means weak or mixed curves; inactive means flat fitted curve, though single readings scatter.
The reply should be one of these categories: true (1) = active, false (0) = inactive

Would you mind telling me which call this test gave NC1CCN(c2nc3c(cc2F)c(=O)c(C(=O)O)cn3-c2ccc(F)cc2F)C1 (stereo not drawn) ?
false (0)

Please share the test call associated with CC(O)C1CCCCC1 (stereo not drawn) .
false (0)

What was the test verdict on Oc1ccc(C(O)CNCCCCCCNCC(O)c2ccc(O)c(O)c2)cc1O (stereo not drawn) ?
false (0)

Give the logged outcome of this assay for the following molecule: `Cl/C(=C\n1cncn1)c1ccc(Cl)cc1Cl`
false (0)

For `CCOC(=O)C1=NN(c2ccccc2)C(=O)C1` , what call appears in the results of this test?
false (0)

What did the test return for `C=C(C)C(=O)OCCOc1ccccc1` ?
true (1)

Which outcome was assigned to `Cn1c(NCCN(CCO)CCCc2ccc([N+](=O)[O-])cc2)cc(=O)n(C)c1=O` in this test?
false (0)

So what was the verdict on O=C=NC1CCC(CC2CCC(N=C=O)CC2)CC1 (stereo not drawn) in this test?
false (0)

What outcome does the record of this test show for `O=C(O)c1cccc(N(Cc2cccnc2)c2ccc(OC(F)F)c(OC(F)F)c2)c1` ?
false (0)

# fetch the recorded call for OCCC1CCCCN1 (stereo not drawn) here
false (0)

Answer briefly: the call reported for `N#CCCNCCC#N` in this assay.
false (0)

Called result for `Cc1cc(NC(=O)C(=O)O)cc(C)c1Oc1ccc(O)c2c1CCC2`
true (1)

GET /call?item= `CCCCOC(=O)/C=C\C(=O)OCCCC` returns the recorded outcome of this test.
false (0)

Could you kindly confirm the outcome this assay logged for `CC(=O)OC/C=C/c1ccccc1` ?
false (0)

Lab log entry: `N=C(N=C(N)N)N1CCOCC1` — outcome as called in the assay?
false (0)

What is the recorded call for this molecule in the test? `CNCC[C@@H](Oc1ccccc1C)c1ccccc1`
false (0)

Assay result, entry COc1ccc2[nH]c(S(=O)Cc3ncc(C)c(OC)c3C)nc2n1 (stereo not drawn) — outcome?
false (0)

Would you mind telling me which call this test gave `CN(C(=O)CCCOc1ccc2[nH]c(=O)ccc2c1)C1CCCCC1` ?
false (0)

Status in this test for CC(C)(C)c1ccc(OCC2CO2)cc1 (stereo not drawn) ?
true (1)

Assay outcome for `CC1(C)[C@H]2CC[C@]1(C)[C@H](O)C2` : what was it?
false (0)

Give the logged outcome of this assay for the following molecule: `CC(=O)CC(=O)c1ccccc1`
false (0)

Dear colleague, could you share the recorded outcome for `COC(Cc1ccccc1)OC` when you have a moment?
false (0)

Record lookup: outcome of this test for `NCc1ccccc1` ?
false (0)

Give the logged outcome of this assay for the following molecule: `COCCOCCOCCOCCOC`
false (0)

Give the logged outcome of this assay for the following molecule: `CCCCCCCCCC=O`
false (0)

I'd appreciate the recorded outcome for `CC(C)CCCCCCOC(=O)c1ccc(C(=O)OCCCCCCC(C)C)c(C(=O)OCCCCCCC(C)C)c1` from this test.
false (0)

Short answer needed: outcome of this test for `CCCCCC/C=C/C=O` ?
false (0)

Assay result, entry `COCCCCCCCCOCCC[Si](C)(O[Si](C)(C)C)O[Si](C)(C)C` — outcome?
false (0)

* * *

# experimental protocol: qHTS RealTime-Glo MT Cell Viability Assay in HepG2 cells - 16 hour (AID 1224885); note: % is set by controls: 0 for no effect and ±100 for the full control effect; nearly all actives have a fitted effect of over 50% in size
# reported conditions: RealTime-Glo luminescence; series mostly up to 76.8 µM
Inconclusive results are not listed. The source made the active and inactive calls. Calls follow the shape of the dose curve; as a rule, active = well fitted cell-killing curve with a large enough effect in the repeat runs; inconclusive = weak or mixed curves; inactive = flat fitted curve, though single readings scatter.
measured parameter: activity change, negative = cytotoxic

Cc1cccc(C(C)(C)C)c1O; inactive
SC1CCCC1; inactive
CCOc1ccc2[nH]cc(C(=O)NCc3ccccc3)c(=O)c2n1; inactive
O=C(NS(=O)(=O)/C=C/c1cccs1)c1ccc(F)cc1Br; inactive
O=C(O)Cc1sc(-c2ccccc2)nc1-c1ccc(Cl)cc1; inactive
CC(=O)/C(C)=C/C1C(C)=CCCC1(C)C (stereo not given); inactive

For `O=CNc1ccccc1` the compound record lists activity change, negative = cytotoxic as inactive

Reported activity change, negative = cytotoxic of `O=C1Nc2cc(Cl)ccc2Oc2ccccc21` : inactive

Item: C1CCC2OC2C1 (stereo not given) | activity change, negative = cytotoxic: inactive

`C#CCOC(=O)[C@@H](C)Oc1ccc(Oc2ncc(Cl)cc2F)cc1` yielded activity change, negative = cytotoxic of inactive

Entry `O=C(Cl)c1c(Cl)cccc1Cl` , activity change, negative = cytotoxic reported as inactive

Noted for `C=C(C)C(=O)OCCOc1ccccc1` : its activity change, negative = cytotoxic reads inactive

For record CC(CN)CCCN (stereo not given) the listed activity change, negative = cytotoxic is inactive

Entry `CCCCCCCCN(C)C` — recorded activity change, negative = cytotoxic = inactive

The compound identified as `Nc1nc(N)c(-c2ccccc2)s1` registered its activity change, negative = cytotoxic at inactive

The recorded activity change, negative = cytotoxic for entry OCCC1CCCCN1 (stereo not given) equals inactive

// activity change, negative = cytotoxic lookup, compound = `Cc1cccc(Oc2ccccc2)c1` , result: inactive

// `CC(C)(C)c1cc(CO)cc(C(C)(C)C)c1O` : activity change, negative = cytotoxic value = inactive

Item: `Cc1ccccc1N=Nc1ccc(N=Nc2c(O)ccc3ccccc23)c(C)c1` | activity change, negative = cytotoxic: inactive

Documented activity change, negative = cytotoxic of `CCCC(=O)OCC` : inactive

Just so you know, measured activity change, negative = cytotoxic for `CC(=O)SCc1ccco1` came out at inactive

Documented activity change, negative = cytotoxic of `O=C(NN1CCCC1)NS(=O)(=O)c1ccc(Cl)cc1` : inactive

response.value for `O=C(c1ccc(O)cc1)c1ccc(O)cc1` (field: activity change, negative = cytotoxic) = inactive

According to the records, this compound `CC(=O)c1c(C)c([N+](=O)[O-])c(C(C)(C)C)c([N+](=O)[O-])c1C` displays activity change, negative = cytotoxic of inactive

Reported activity change, negative = cytotoxic ( COc1ccc2[nH]c(S(=O)Cc3ncc(C)c(OC)c3C)nc2n1 (stereo not given) ) = inactive

Form field activity change, negative = cytotoxic, entry `CCCCCCCC/C=C\CCCCCCCC(N)=O` : inactive

The reported value for `COc1ccccc1OC(=O)Oc1ccccc1OC` in terms of activity change, negative = cytotoxic is inactive

Please fill in: activity change, negative = cytotoxic reported for `CCCCCCCCCCCCCCCCCBr` = -3.91% [at 15.8 µM] (inactive)

Looking up `O=C(CC(=O)c1ccccc1)c1ccccc1` , I see its activity change, negative = cytotoxic listed as inactive

Lab note: CC1CCc2cc(F)cc3c(=O)c(C(=O)O)cn1c23 (stereo not given) gave activity change, negative = cytotoxic of inactive
